Sourced from patent US20230250188A1

Target: T1, recombinant human GPC1 protein (R&D Systems) (human, UniProt P35052 24-530)
T1 construct: Bought recombinant protein (R&D Systems); also called human GPC-1 antigen; Glypican-1
T1 sequence: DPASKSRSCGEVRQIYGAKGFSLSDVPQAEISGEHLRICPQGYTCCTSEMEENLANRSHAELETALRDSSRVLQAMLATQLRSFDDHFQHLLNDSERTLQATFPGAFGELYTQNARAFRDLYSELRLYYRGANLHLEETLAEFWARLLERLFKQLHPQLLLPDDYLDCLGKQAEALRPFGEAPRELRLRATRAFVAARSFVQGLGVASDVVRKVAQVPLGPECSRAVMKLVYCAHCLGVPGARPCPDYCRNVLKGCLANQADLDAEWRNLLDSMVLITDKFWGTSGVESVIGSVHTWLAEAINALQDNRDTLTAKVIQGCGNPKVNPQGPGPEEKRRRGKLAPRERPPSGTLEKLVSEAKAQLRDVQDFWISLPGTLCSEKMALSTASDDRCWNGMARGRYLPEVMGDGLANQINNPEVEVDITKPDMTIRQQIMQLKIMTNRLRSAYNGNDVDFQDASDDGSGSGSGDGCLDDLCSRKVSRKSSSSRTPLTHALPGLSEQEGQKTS
Test: SPR (Biacore 8K); antibody captured by anti-human IgG (Fc) on a CM5 chip, recombinant human GPC1 flowed over
PROPERTY: kon (M⁻¹ s⁻¹)
The reply should contain only the number, in M⁻¹ s⁻¹.

BINDER	kon [M⁻¹ s⁻¹]
humanized anti-GPC1 monoclonal antibody clone T28 (antibody, human IgG4 S228P, kappa, V domains shown, IgG) VH: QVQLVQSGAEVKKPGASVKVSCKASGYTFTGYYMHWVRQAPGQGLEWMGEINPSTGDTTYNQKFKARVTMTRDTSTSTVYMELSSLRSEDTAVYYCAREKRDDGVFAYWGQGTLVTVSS VL: DIQMTQSPSSLSASLGEMVTITCRASESIHSYLNWYQQKPGKAPNLLIYDASNLESGVPSRFSGSGYGTDFTLTISSLQPEDFATYYCQQSYGPPITFGQGTRLEIKR	313000

Data point: humanized anti-GPC1 monoclonal antibody clone T3 (antibody, human IgG4 S228P, kappa, V domains shown, IgG) VH: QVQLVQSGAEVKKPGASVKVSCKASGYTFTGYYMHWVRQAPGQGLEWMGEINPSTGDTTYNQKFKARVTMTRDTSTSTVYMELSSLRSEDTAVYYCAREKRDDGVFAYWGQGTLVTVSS VL: DIVMTQSPSSVSASVGDRVSITCRASEHINGWLAWYQQIPGKAPRILISSASILQSGAPSRFSGSGFGTDFTLTISSVQPEDFATYYCQQAKSYPLTFGGGTKVEIKR ; kon = 229000
